test: Absorbance and fluorescence emission spectra (SpectraMax M2); format: physicochemical; details: MK library, Table 5
readout type: λmax Emission (nm)
Kindly answer with a numeric value in nm, unit omitted.

structure_smiles=Nc1ccc(C2=C3C=CC(N4CCc5ccccc5C4)=[N+]3[B-](F)(F)n3c2ccc3-n2cc(C3CCCC3)nn2)cc1 experimental_result=582
structure_smiles=Nc1ccc(C2=C3C=CC(NCc4cc(F)cc(F)c4)=[N+]3[B-](F)(F)n3c2ccc3-n2cc(CC3CCCCC3)nn2)cc1 experimental_result=563

Quick one: λmax Emission of `Cc1ccccc1CNC1=[N+]2C(=C(c3ccc(N)cc3)c3ccc(-n4cc(CC(C)C)nn4)n3[B-]2(F)F)C=C1` ?
562

====

assay: Quantum yield measurements versus Acridine Yellow in EtOH; format: physicochemical; details: MKAC compound library; quantum yield
Recorded φ (%) by entry
Kindly answer with a numeric value in %, unit omitted.

Below: 2 compounds and their reported φ (%).
compound="CCCC(C)c1cn(-c2ccc3n2[B-](F)(F)[N+]2=C(N4CCCC4)C=CC2=C3c2ccc(NC(C)=O)cc2)nn1 (racemic)" readout_type="φ (%)" experimental_result=3.81
compound="CCCC(C)c1cn(-c2ccc3n2[B-](F)(F)[N+]2=C(NCc4ccccc4OCC)C=CC2=C3c2ccc(NC(C)=O)cc2)nn1 (stereo not shown)" readout_type="φ (%)" experimental_result=23.42

Quick one: φ (%) of `COc1ccc(OC)c(CNC2=[N+]3C(=C(c4ccc(NC(C)=O)cc4)c4ccc(-n5cc(CC6CCCCC6)nn5)n4[B-]3(F)F)C=C2)c1` ?
13.98

Quick one: φ (%) of CCCC(C)c1cn(-c2ccc3n2[B-](F)(F)[N+]2=C(N4CCc5ccccc5C4)C=CC2=C3c2ccc(NC(C)=O)cc2)nn1 (stereo not shown) ?
2.40

Quick one: φ (%) of `CC(=O)Nc1ccc(C2=C3C=CC(N4CCCC4)=[N+]3[B-](F)(F)n3c2ccc3-n2cc(CN(C)Cc3ccccc3)nn2)cc1` ?
1.54

Quick one: φ (%) of CCCC(C)c1cn(-c2ccc3n2[B-](F)(F)[N+]2=C(NCc4cc(OC)ccc4OC)C=CC2=C3c2ccc(NC(C)=O)cc2)nn1 (racemic) ?
15.41

Quick one: φ (%) of `CC(=O)Nc1ccc(C2=C3C=CC(NCc4cc(F)cc(F)c4)=[N+]3[B-](F)(F)n3c2ccc3-n2cc(CN(C)Cc3ccccc3)nn2)cc1` ?
21.83

Quick one: φ (%) of `CC(=O)Nc1ccc(C2=C3C=CC(NCc4ccccc4C)=[N+]3[B-](F)(F)n3c2ccc3-n2cc(CO)nn2)cc1` ?
18.11

====

assay: Quantum yield measurements versus Acridine Yellow in EtOH; format: physicochemical; conditions: BDCAC library, Table 3; excitation 460 nm
Recorded φ (quantum yield) by entry
Kindly answer with a numeric value in %, unit omitted.

Below: 8 molecules and their reported φ (quantum yield).
molecule=CC(=O)Nc1ccc(C2=C3C=CC(N4CCCCC4)=[N+]3[B-](F)(F)n3c2ccc3-n2cc(-c3ccc(F)c(F)c3)nn2)cc1 readout_type="φ (quantum yield)" experimental_result=0.7
molecule=CC(=O)Nc1ccc(C2=C3C=CC(N4CCCCC4)=[N+]3[B-](F)(F)n3c2ccc3-n2cc(CN(C)C)nn2)cc1 readout_type="φ (quantum yield)" experimental_result=0.8
molecule=CC(=O)Nc1ccc(C2=C3C=CC(N4CCCCC4)=[N+]3[B-](F)(F)n3c2ccc3-n2cc(-c3ccc(OC(F)(F)F)cc3)nn2)cc1 readout_type="φ (quantum yield)" experimental_result=2.7
molecule=COc1cc(OC)cc(-c2cn(-c3ccc4n3[B-](F)(F)[N+]3=C(N5CCCCC5)C=CC3=C4c3ccc(NC(C)=O)cc3)nn2)c1 readout_type="φ (quantum yield)" experimental_result=1.0
molecule=CC(=O)Nc1ccc(C2=C3C=CC(N4CCCCC4)=[N+]3[B-](F)(F)n3c2ccc3-n2cc(CN(C)Cc3ccccc3)nn2)cc1 readout_type="φ (quantum yield)" experimental_result=0.8
molecule=COc1cccc(-c2cn(-c3ccc4n3[B-](F)(F)[N+]3=C(N5CCCCC5)C=CC3=C4c3ccc(NC(C)=O)cc3)nn2)c1 readout_type="φ (quantum yield)" experimental_result=2.1
molecule="CCCC(C)c1cn(-c2ccc3n2[B-](F)(F)[N+]2=C(N4CCCCC4)C=CC2=C3c2ccc(NC(C)=O)cc2)nn1 (centres unmarked)" readout_type="φ (quantum yield)" experimental_result=1.5
molecule=CCCCCCCCc1cn(-c2ccc3n2[B-](F)(F)[N+]2=C(N4CCCCC4)C=CC2=C3c2ccc(NC(C)=O)cc2)nn1 readout_type="φ (quantum yield)" experimental_result=0.8

Quick one: φ (quantum yield) of `CC(=O)Nc1ccc(C2=C3C=CC(N4CCCCC4)=[N+]3[B-](F)(F)n3c2ccc3-n2cc(-c3cccc(F)c3)nn2)cc1` ?
0.9

Quick one: φ (quantum yield) of `CC(=O)Nc1ccc(C2=C3C=CC(N4CCCCC4)=[N+]3[B-](F)(F)n3c2ccc3-n2cc(-c3cc(C(F)(F)F)cc(C(F)(F)F)c3)nn2)cc1` ?
3.5

Quick one: φ (quantum yield) of `CCc1ccc(-c2cn(-c3ccc4n3[B-](F)(F)[N+]3=C(N5CCCCC5)C=CC3=C4c3ccc(NC(C)=O)cc3)nn2)cc1` ?
1.4

Data origin, for the record: patent US9513294B2
